Multi-source literature compilation: Ki on UniProt P00742.
measured-attribute: Ki (µM)

Worked cases, answers included:
INSERT INTO assay_data (compound, unit_of_measurement, observed) VALUES
  ('CN1C(=O)C(Cc2ccc(C(=N)N)cc2)Oc2cc(N(Cc3ccccc3)C(=O)CCC(=O)O)ccc21 (stereo not drawn)', 'µM', 15.9),
  ('O=C(NC[C@H]1CN(c2ccc(N3CCC(C(=O)O)CC3)cc2)C(=O)O1)c1ccc(Cl)c(-c2noc(=O)[nH]2)c1', 'µM', 89.7);

(a) COC(=O)Nc1ccc2c(c1)NC(=O)CCc1nc(ccc1F)C[C@H](NC(=O)/C=C/c1cc(Cl)ccc1-n1cnnn1)c1nc-2c[nH]1
(b) COc1ccc(-n2nc(C(=O)N(C)C)c3c2C(=O)N(c2ccc(-c4ccccc4CN4CC[C@@H](O)C4)cc2)CC3)cc1
(c) COc1ccc(C(=O)NCC2CCN(c3cccc(C#N)c3)CC2)cc1OCCc1ccc(Cl)cc1Cl
Order the records by Ki, with each subsequent value no larger than the one before. # answer = labels listed in requested order
c, a, b
